Test system: UACC-62 melanoma
Protocol notes: NCI tumour cell line growth inhibition, 48 h
Measured endpoint: TGI

# Molecule, Test value
data = [
    ("N=c1c2ccccc2nc2oc3ccc(Cl)cc3n12", "> 100 µM"),
    ("CCOC(=O)C1=C(N)Oc2cc(OC)ccc2C1c1ccc(F)c(F)c1 (stereo not drawn)", "15.4 µM"),
    ("O=C(CN1CCCC1)Nc1ccc2sc3ccccc3c(=O)c2n1", "36.6 µM"),
    ("COc1ccc(-n2nnnc2C2(Nc3ccccc3)CCN(Cc3ccccc3)CC2)cc1", "31.1 µM"),
    ("O=C1/C(=C/c2ccc(O)cc2)CCc2ccccc21", "46.2 µM"),
]

Quote TGI reported for "C#Cc1ccc(-n2c(/C=C/c3ccc4ccccc4n3)nc3ncccc3c2=O)cc1" please.
1.75 µM

For the molecule "COc1cc2c(cc1C)NC(=O)/C2=C/c1c(C)nc2sc(C)cn12" , give its reported TGI.
> 100 µM

Given the molecule "O=C(Nc1ccc(Cl)cc1Cl)/C(Cl)=C1/Sc2ccccc2NC1=O" , write its reported TGI.
> 100 µM

Give the reported value of TGI for this record: COC(=O)/C(Cl)=C1/CC1COCc1ccccc1 (stereo not drawn)
66.8 µM

Complete the entry with TGI for "O=C(Nc1cccc(-n2cc(-c3ccncc3)c(-c3ccc(O)c(Cl)c3)n2)c1)Nc1ccc(Cl)c(C(F)(F)F)c1"
5.07 µM

Name the recorded TGI of the molecule listed here: COc1ccc(N2C(=O)CC(c3c[nH]c4ccccc34)C2=O)cc1 (stereo not drawn)
> 100 µM

---

System: TK-10 renal
Protocol notes: NCI tumour cell line growth inhibition, 48 h
Measured TGI, listed per entry for reference.

# Molecule, TGI
rows = [
    ("CC1(c2nc3cc(Cl)c(Cl)cc3[nH]2)CCC(C(=O)O)C(C)(C)O1 (configuration not stated)", "> 100 µM"),
    ("CC[C@@H]1C[C@@H](O)[C@@H]2[C@H](O)[C@H](O)CN2C1", "> 100 µM"),
    ("C#CCOc1c(OC)cc(C(=O)/C(C)=C/c2cccc(N=[N+]=[N-])c2)cc1OC", "38.9 µM"),
]

Complete the entry with TGI for "O=C(/C=C/c1ccc2c(c1)OCO2)c1ccccc(=O)c1O"
43.5 µM

Return value of TGI for input Cc1cccc(C(O)c2ccccn2)c1O (configuration not stated) , no commentary.
> 100 µM

Supply recorded TGI for "O=C(NC1CCN(Cc2ccccc2)CC1)c1ccccc1I" here.
63.6 µM

Give the measured TGI for CC(=O)OCC1OC(OC2CC3C(C)(C)C(=O)CC[C@]3(C)C3CC[C@]45C[C@]4(CCC5[C@@H](C)CC(O)C(O)C(C)(C)O)[C@]23C)C(O)C(O)C1O (some centres not stated)
28.1 µM

Please list TGI recorded for the molecule "COc1cc(CNC(=O)CCCCCCCCCCSSCCCCCCCCCCC(=O)NCc2ccc(O)c(OC)c2)ccc1O"
> 10 µM

Quickly give me recorded TGI for "O=C(CN1CCCC1)Nc1ccc2sc3ccccc3c(=O)c2n1"
> 100 µM

Consider the molecule "NNc1nc(-c2ccccn2)nc2sc3c(c12)CCCCCC3" . State its measured TGI.
> 100 µM

Specify reported TGI for the molecule shown: "Cn1c(=O)c2c(nc3sc4ncccc4c(=O)n32)n(C)c1=O"
> 100 µM

Look up and state reported TGI for "O=c1[nH]c(C2CCCCC2)nc2cc(Cl)ccc12"
> 100 µM

Quote TGI reported for "CCOC(=O)c1c2c(n3cccc(F)c13)C(=O)c1ncccc1C2=O" please.
27.2 µM

Give the reported value of TGI for this record: "CCC(C)(C)c1ccc(Oc2cccc(C(=O)O)c2)cc1"
> 100 µM

Return reported TGI. Input molecule: "N.N.N.N.O=S(=O)([O-])[O-].[Co+3].[OH3+].[OH3+]"
> 100 µM

Specify reported TGI for the molecule shown: "CNC(=S)N/N=C(/C)CCC/C(C)=N/NC(=S)NC"
> 100 µM

Supply recorded TGI for "CC(C)(C)C1CCN(C(=O)c2ccccc2)CC1" here.
> 100 µM

Note down TGI recorded for O=C1[C@H](c2ccccc2)C2c3ccccc3CCN12 (some centres not stated)
> 100 µM
